- system: KV1.3 (Homo sapiens)
- Sequence (P22001 whole entry): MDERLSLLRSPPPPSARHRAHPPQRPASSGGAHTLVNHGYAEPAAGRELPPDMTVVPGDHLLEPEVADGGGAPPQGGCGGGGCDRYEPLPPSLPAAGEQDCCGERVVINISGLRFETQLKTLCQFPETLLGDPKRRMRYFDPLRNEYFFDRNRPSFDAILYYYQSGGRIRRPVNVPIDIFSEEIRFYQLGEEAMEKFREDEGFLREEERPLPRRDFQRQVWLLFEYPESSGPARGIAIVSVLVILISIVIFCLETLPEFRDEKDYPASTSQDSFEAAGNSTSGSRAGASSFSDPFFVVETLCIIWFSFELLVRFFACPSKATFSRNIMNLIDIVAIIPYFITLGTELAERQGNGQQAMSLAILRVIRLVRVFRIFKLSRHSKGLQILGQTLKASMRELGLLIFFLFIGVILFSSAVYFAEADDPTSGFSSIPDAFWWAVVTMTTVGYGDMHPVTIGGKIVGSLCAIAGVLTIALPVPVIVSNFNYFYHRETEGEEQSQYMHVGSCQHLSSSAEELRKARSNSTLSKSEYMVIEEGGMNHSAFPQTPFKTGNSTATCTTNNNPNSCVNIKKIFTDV
measure: pIC50
Friendly reminder that pIC50 comes from taking -log10 of the concentration in mol/L.

// returns reported pIC50 for input NCCOB(c1ccccc1)c1ccccc1 [2-APB]
3.34
